FYI, the data here is from ChEMBL document CHEMBL1152877.

- Procedure Details: Cytotoxicity against C57BL/6J mouse Melan-a cells assessed as cell survival at 50 uM by modified crystal violet assay
- Format: cell-based
- Condition Label: read-out: Survival
Parameter: viability at 50 µM (%)
# output: bare number, implied unit %

Indicate the recorded viability at 50 µM value for this compound: O=C(NC12CC3CC(CC(C3)C1)C2)c1ccc(O)cc1O 99.2

* * *

- Procedure Details: Cytotoxicity against C57BL/6J mouse Melan-a cells assessed as cell survival at 80 uM by modified crystal violet assay
- Type: cell-based
- Condition Label: read-out: Survival
Parameter: viability at 80 µM (%)
Field: numeric (%). Do not append units.

State, in one line, measured viability at 80 µM of CCCCc1ccc(O)cc1O 98.2
